test system: Ad-MSC-GFP 3 cells; experiment: Cytotoxicity / cell viability assay (PrestoBlue) on Ad-MSC-GFP 3; assay type: cell-based, human; details: Homo sapiens, 120 h; Ad-MSC-GFP 3 / Ad-MSC 3, 5 days
Structures can show the parent of a compound that is named as a salt.
Result Type: IC50 (nM)
Record the value in nM, omitting the unit from your answer.

Task: If you can, please state the reported IC50 value of COc1cccc2c1C(=O)c1c(O)c3c(c(O)c1C2=O)C[C@@](O)(C(=O)CO)C[C@@H]3O[C@H]1C[C@H](N)[C@H](O)[C@H](C)O1 [doxorubicin, doxorubicin hydrochloride] .
Output: 100

Data provenance is paper PMC9563435.
